Biological target: CYP3A5 (Homo sapiens)
Sequence (P20815 whole entry): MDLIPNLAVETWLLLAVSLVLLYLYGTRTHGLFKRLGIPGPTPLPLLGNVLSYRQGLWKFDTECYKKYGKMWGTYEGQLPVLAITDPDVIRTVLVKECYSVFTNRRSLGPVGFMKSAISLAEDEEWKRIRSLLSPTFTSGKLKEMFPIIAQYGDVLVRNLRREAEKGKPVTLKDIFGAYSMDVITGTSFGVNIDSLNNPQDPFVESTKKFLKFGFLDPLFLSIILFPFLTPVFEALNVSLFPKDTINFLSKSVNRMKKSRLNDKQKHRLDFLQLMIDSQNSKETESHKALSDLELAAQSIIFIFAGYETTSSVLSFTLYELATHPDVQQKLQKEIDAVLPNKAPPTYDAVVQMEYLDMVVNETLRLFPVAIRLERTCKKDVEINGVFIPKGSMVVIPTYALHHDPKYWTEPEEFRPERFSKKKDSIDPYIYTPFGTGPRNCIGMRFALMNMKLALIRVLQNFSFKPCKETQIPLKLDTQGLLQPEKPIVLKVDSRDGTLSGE
Experiment: Mechanism-based inactivation of CYP3A5, rivaroxaban as probe substrate
Format: biochemical
Conditions: human, recombinant CYP3A5 (rCYP3A5), probe rivaroxaban
MEASUREMENT TYPE: kinact (s⁻¹)
One number for each entry, in s⁻¹.

Checklist item: kinact tested on CYP3A5 (Homo sapiens), entry `CCCCc1oc2ccc(NS(C)(=O)=O)cc2c1C(=O)c1ccc(OCCCN(CCCC)CCCC)cc1` , value?
0.000538

====

Assay: Aqueous kinetic solubility
Assay type: physicochemical
Details: universal aqueous buffer, pH 7.4
MEASUREMENT TYPE: solubility at 24 h (µg/mL)
Give bare numbers, in µg/mL.

Using the record for CCCCc1oc2ccc(NS(C)(=O)=O)cc2c1C(=O)c1ccc(OCCCN(CCCC)CCCC)cc1 [Dronedarone] , report its solubility at 24 h.
3.22

====

Molecular target: CYP3A5 (Homo sapiens)
Assay: Metabolic stability, substrate depletion, rCYP3A5
Assay type: in vitro ADME
Settings: human, recombinant CYP3A5 (rCYP3A5)
MEASUREMENT TYPE: half-life at 1 μmol/L (min)
One number for each entry, in min.

# input molecule: CCCCc1oc2ccc(NS(C)(=O)=O)cc2c1C(=O)c1ccc(OCCCN(CCCC)CCCC)cc1 [Dronedarone] ; wanted: its half-life at 1 μmol/L
12.2

====

Biological target: UniProt Q12809
Sequence (Q12809 whole entry): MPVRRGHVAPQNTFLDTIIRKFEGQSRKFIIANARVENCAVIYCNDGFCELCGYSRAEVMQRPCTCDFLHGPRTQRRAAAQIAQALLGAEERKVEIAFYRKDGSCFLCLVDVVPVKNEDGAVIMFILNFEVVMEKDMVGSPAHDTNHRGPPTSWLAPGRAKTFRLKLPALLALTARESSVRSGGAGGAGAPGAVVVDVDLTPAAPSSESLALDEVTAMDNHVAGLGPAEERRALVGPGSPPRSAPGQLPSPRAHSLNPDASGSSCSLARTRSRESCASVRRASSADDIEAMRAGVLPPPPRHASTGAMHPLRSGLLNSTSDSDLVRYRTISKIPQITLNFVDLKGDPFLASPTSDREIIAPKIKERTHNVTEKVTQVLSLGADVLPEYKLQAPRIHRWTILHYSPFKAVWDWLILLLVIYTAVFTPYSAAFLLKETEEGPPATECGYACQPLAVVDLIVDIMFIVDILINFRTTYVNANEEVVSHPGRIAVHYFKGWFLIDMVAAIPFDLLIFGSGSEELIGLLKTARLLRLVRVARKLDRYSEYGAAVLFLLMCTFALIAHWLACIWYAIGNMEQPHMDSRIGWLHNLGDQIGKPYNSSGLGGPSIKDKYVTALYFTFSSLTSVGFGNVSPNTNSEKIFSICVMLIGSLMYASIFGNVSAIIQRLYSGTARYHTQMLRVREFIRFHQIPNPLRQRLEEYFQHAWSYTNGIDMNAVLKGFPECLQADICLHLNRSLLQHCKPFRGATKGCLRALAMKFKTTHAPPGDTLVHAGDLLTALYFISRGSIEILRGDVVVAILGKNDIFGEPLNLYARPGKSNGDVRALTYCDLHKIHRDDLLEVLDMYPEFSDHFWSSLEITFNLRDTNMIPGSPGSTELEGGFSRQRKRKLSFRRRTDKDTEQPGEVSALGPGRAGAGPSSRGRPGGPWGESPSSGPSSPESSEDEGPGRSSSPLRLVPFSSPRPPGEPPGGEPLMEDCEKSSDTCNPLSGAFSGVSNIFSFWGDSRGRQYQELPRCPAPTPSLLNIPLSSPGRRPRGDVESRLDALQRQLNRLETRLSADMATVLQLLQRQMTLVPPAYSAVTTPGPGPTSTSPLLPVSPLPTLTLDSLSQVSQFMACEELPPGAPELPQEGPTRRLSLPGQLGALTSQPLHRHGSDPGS
Test: Whole-cell patch clamp, KV11.1 tail current in transfected HEK293FT cells
MEASUREMENT TYPE: IC50
Remember to quote the unit after the number.

Using the record for `CCCCc1oc2ccc(NS(C)(=O)=O)cc2c1C(=O)c1ccc(OCCCN(CCCC)CCCC)cc1` , report its IC50.
160 nM

====

Target: CYP2J2 (Homo sapiens)
Assay: in vitro
Format: biochemical
Details: human
MEASUREMENT TYPE: kinact (s⁻¹)
One number for each entry, in s⁻¹.

What does the data say about its kinact? Entry: `CCCCc1oc2ccc(NS(C)(=O)=O)cc2c1C(=O)c1ccc(OCCCN(CCCC)CCCC)cc1`
0.000667

====

Assay: Metabolic stability, substrate depletion, HLM
Format: in vitro ADME
Conditions: human, human liver microsomes
MEASUREMENT TYPE: half-life at 1 μmol/L (min)
Give bare numbers, in min.

What half-life at 1 μmol/L value was documented for this molecule, `CCCCc1oc2ccc(NS(C)(=O)=O)cc2c1C(=O)c1ccc(OCCCN(CCCC)CCCC)cc1` ?
10.4

====

Test: Effective permeability by PAMPA
Type: physicochemical
Details: pH 7.4
MEASUREMENT TYPE: Papp at 16 h (×10⁻⁶ cm/s)
Numbers only, in ×10⁻⁶ cm/s.

// returns reported Papp at 16 h for input CCCCc1oc2ccc(NS(C)(=O)=O)cc2c1C(=O)c1ccc(OCCCN(CCCC)CCCC)cc1 [Dronedarone]
3.46

====

Molecular target: CYP2J2 (Homo sapiens, UniProt P51589)
Sequence (P51589 whole entry): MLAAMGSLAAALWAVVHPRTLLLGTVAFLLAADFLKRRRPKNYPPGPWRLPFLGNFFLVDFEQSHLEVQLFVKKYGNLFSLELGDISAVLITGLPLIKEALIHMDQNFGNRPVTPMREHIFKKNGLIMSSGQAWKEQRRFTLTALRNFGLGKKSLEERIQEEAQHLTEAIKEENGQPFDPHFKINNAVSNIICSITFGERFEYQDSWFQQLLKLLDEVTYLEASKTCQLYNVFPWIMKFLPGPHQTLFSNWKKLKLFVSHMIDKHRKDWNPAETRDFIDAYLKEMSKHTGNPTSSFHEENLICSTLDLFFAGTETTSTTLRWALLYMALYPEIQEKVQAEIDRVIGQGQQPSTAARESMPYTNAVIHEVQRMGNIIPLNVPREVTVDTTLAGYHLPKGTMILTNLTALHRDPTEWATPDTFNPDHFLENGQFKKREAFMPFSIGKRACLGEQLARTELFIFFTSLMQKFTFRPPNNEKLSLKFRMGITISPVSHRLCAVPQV
Test: in vitro
Format: in vitro ADME
Conditions: human, recombinant enzyme
MEASUREMENT TYPE: half-life at 1 μmol/L (min)
One number for each entry, in min.

Reported half-life at 1 μmol/L for `CCCCc1oc2ccc(NS(C)(=O)=O)cc2c1C(=O)c1ccc(OCCCN(CCCC)CCCC)cc1` : what is it?
3.95

====

Experiment: Metabolic stability, substrate depletion, HLM
Assay type: in vitro ADME
Conditions: human, human liver microsomes
MEASUREMENT TYPE: microsomal CLint at 1 μmol/L
Please report the result as a number followed by the unit.

What measured microsomal CLint at 1 μmol/L goes with CCCCc1oc2ccc(NS(C)(=O)=O)cc2c1C(=O)c1ccc(OCCCN(CCCC)CCCC)cc1 [Dronedarone] ?
13.3 µL/min/mg

====

Molecular target: human NaV1.5 channel (Homo sapiens)
Sequence (Q14524 whole entry): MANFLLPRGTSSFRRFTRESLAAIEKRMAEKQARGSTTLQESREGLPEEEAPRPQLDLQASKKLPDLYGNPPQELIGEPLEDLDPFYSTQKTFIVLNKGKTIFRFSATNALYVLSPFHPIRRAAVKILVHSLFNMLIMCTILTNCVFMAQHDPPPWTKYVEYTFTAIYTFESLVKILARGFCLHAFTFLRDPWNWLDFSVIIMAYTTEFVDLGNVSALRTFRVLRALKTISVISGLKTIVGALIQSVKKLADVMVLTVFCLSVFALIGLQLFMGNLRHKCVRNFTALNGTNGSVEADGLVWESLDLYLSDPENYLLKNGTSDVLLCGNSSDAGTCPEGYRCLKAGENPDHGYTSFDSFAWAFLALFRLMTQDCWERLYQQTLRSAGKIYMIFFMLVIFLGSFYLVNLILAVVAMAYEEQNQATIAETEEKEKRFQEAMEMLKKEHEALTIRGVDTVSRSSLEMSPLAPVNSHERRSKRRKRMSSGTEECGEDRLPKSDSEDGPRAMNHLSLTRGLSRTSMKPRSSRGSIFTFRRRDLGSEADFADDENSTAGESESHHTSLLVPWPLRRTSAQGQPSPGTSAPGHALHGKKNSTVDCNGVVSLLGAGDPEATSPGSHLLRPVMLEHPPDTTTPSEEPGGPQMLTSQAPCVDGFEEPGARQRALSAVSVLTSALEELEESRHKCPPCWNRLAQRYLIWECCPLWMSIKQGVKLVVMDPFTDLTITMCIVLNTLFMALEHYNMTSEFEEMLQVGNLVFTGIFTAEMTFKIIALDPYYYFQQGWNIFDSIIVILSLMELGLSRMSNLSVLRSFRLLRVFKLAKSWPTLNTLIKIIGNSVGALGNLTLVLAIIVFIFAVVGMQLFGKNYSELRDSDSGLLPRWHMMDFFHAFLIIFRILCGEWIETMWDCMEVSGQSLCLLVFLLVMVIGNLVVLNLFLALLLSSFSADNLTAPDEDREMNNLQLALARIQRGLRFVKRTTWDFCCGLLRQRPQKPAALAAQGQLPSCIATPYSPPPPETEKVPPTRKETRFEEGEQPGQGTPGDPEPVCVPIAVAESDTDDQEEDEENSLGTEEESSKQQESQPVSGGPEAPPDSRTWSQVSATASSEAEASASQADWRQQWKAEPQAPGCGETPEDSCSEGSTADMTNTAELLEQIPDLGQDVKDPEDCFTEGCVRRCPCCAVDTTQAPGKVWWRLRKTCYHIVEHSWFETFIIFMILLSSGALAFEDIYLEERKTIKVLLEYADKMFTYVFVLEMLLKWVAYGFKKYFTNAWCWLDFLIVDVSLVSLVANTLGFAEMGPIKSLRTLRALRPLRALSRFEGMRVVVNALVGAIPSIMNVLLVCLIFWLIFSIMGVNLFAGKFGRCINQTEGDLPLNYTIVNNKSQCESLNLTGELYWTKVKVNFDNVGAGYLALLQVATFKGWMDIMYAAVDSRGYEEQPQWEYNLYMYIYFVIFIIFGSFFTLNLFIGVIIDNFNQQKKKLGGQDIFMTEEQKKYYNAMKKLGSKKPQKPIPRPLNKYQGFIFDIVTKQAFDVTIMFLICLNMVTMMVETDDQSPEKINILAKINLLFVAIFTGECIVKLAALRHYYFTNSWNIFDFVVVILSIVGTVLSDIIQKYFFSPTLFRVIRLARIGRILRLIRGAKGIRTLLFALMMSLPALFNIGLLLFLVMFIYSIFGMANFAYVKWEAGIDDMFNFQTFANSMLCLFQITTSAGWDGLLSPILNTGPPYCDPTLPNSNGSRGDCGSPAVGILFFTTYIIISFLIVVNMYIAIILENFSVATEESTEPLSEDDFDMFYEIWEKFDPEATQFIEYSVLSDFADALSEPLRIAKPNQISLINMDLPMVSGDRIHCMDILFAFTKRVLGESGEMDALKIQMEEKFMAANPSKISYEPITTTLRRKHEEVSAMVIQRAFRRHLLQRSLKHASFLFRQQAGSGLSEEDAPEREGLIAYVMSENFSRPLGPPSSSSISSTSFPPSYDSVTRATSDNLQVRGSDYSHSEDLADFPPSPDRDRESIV
Experiment: Whole-cell patch clamp, NaV1.5 peak current in transfected HEK293FT cells
MEASUREMENT TYPE: IC50
For clarity, give the value followed by its unit.

human NaV1.5 channel (Homo sapiens) / IC50 / CCCCc1oc2ccc(NS(C)(=O)=O)cc2c1C(=O)c1ccc(OCCCN(CCCC)CCCC)cc1 [Dronedarone] : value?
3.41 µM
